Quick note: these are pIC50 numbers for system: Human 11β-HSD1 (Homo sapiens, UniProt P28845)
Sequence (P28845 whole entry): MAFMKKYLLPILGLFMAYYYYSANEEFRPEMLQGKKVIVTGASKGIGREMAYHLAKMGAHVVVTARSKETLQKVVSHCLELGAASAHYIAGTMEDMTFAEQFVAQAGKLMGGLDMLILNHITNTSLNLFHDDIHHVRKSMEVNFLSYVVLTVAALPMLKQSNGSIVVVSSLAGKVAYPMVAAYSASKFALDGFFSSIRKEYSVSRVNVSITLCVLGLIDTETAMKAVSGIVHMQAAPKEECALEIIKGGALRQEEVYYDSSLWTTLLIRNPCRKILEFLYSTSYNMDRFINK
pIC50 is defined as minus the log10 of a concentration measured in mol/L.

[
  {
    "Compound": "CCN(C1=NC(=O)C2CC(C)(C)CCC2S1)c1ccccc1C(C)(C)C (centres unmarked)",
    "Target or test system": "Human 11β-HSD1 (Homo sapiens, UniProt P28845)",
    "Obs value": 7.49
  }
]

Field: next compound
Query CCN(C1=NC(=O)C2CC(C)(C)CCC2S1)N1CCCCCC1 (centres unmarked) yields pIC50 of 7.96
